Examples of compounds with documented activity [%] (%-substrate conversion after 20 min incubation) follow.
target: WT IDH2 (Homo sapiens); construct: made in house; host or cells: Sf21 insect cells (cell pellets prepared at Evotec); assay: Absorbance assay, WT activity in the presence of equimolar DL-isocitrate (inhibition); format: biochemical; conditions: […] isocitrate and […] test compound, 75 μM NADP+, 2.0 nM WT IDH2
Sequence (P48735 40-452): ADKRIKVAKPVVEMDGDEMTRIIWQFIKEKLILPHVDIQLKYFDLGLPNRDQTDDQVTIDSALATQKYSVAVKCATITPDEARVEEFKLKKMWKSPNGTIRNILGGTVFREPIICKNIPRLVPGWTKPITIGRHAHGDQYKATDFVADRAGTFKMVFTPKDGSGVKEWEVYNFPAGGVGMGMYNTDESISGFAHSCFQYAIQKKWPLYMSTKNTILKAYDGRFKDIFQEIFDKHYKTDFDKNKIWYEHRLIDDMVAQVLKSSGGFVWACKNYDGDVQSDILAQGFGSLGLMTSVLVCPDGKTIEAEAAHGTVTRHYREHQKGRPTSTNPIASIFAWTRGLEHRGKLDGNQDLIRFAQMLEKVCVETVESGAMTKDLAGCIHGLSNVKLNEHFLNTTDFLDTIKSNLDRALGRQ
Where a name gives a salt, the structure may show the parent alone.
Give just the number in %; leave the unit off.

Would you please look over these solved cases?
>  <compound>
CC[C@H](C)C(=O)C(=O)O [α-ketoisoleucine]

>  <tested_system>
WT IDH2 (Homo sapiens)

>  <quantitative_result>
98

$$$$
>  <compound>
CCC(CC(=O)O)C(=O)C(=O)O (racemic) [compound 2]

>  <tested_system>
WT IDH2 (Homo sapiens)

>  <quantitative_result>
96

$$$$
>  <compound>
COC(=O)CC(C)C(=O)OC (racemic) [DL-dimethyl 2-methylsuccinate]

>  <tested_system>
WT IDH2 (Homo sapiens)

>  <quantitative_result>
100

$$$$
>  <compound>
NC(=O)C(=O)O [oxamic acid]

>  <tested_system>
WT IDH2 (Homo sapiens)

>  <quantitative_result>
100

$$$$
>  <compound>
CCOC(=O)/C=C/C(=O)O [mono-ethyl fumarate]

>  <tested_system>
WT IDH2 (Homo sapiens)

>  <quantitative_result>
96

$$$$
>  <compound>
CC(C(=O)O)C(C)C(=O)O (stereo not shown) [1,2-dimethylsuccinic acid]

>  <tested_system>
WT IDH2 (Homo sapiens)

>  <quantitative_result>
99

$$$$
>  <compound>
O=C(O)CC(=O)O [malonic acid]

>  <tested_system>
WT IDH2 (Homo sapiens)

>  <quantitative_result>
100

$$$$
>  <compound>
O=C(O)C(=O)CC(Cc1ccccc1)C(=O)O (racemic) [compound 19]

>  <tested_system>
WT IDH2 (Homo sapiens)

>  <quantitative_result>
97

$$$$

Data point: O=C(O)CC(Cc1ccccc1)C(=O)O (racemic) [DL-benzylsuccinic acid] ; activity [%] (%-substrate conversion after 20 min incubation) = 101

Data point: O=C(O)CC(CCCc1ccccc1)C(=O)C(=O)O (racemic) [compound 6] ; activity [%] (%-substrate conversion after 20 min incubation) = 99

Data point: O=C(O)CC(S)C(=O)O (stereo not shown) [2-mercaptosuccinic acid] ; activity [%] (%-substrate conversion after 20 min incubation) = 100

Data point: CC(C)(CC(=O)C(=O)O)C(=O)O [compound 13, 4,4-dimethyl-2OG] ; activity [%] (%-substrate conversion after 20 min incubation) = 101

Data point: O=C(O)CCC(O)C(=O)O (racemic) [DL-2-hydroglutaric acid] ; activity [%] (%-substrate conversion after 20 min incubation) = 95

Data point: O=CC(=O)O [glyoxylic acid] ; activity [%] (%-substrate conversion after 20 min incubation) = 99

Data point: O=C(O)C(=O)C(=O)O [ketomalonic acid] ; activity [%] (%-substrate conversion after 20 min incubation) = 100

Data point: O=C(O)CC(Cc1ccc(F)cc1)C(=O)C(=O)O (racemic) [compound 8] ; activity [%] (%-substrate conversion after 20 min incubation) = 100

Data point: CC(C)CC(=O)C(=O)O [α-ketoisocaproic acid] ; activity [%] (%-substrate conversion after 20 min incubation) = 102

Data point: CC(CC(=O)O)C(=O)C(=O)O (stereo not shown) [compound 1, 3-methyl-2OG] ; activity [%] (%-substrate conversion after 20 min incubation) = 97

Data point: O=C(O)CCC(=O)O [succinic acid] ; activity [%] (%-substrate conversion after 20 min incubation) = 97

Data point: O=C(O)C(=O)c1cccc(C(=O)O)c1 [compound 29] ; activity [%] (%-substrate conversion after 20 min incubation) = 99

Data point: O=C(O)C(=O)CCc1ccccc1 [2-oxo-4-phenylbutanoic acid] ; activity [%] (%-substrate conversion after 20 min incubation) = 96

Data point: O=C(O)CCC(=O)C(=O)O [2OG, 2-oxoglutarate, reference compound] ; activity [%] (%-substrate conversion after 20 min incubation) = 91
